test system: ZR-75-1; experiment: Caspase cascade activation assay in ZR-75-1 cells (N-(Ac-DEVD)-N'-ethoxycarbonyl-R110 fluorogenic substrate); format: cell-based; conditions: ZR-75-1 human breast cancer cells, 24 h incubation; ratio of net RFU of test compound to control
parameter: Caspase activity (Ratio)
One number for each entry.

For orientation, consider the following solved cases.
COc1cc(C2C(C#N)=C(N)Oc3c2ccc2c3ccn2CC2CC2)cc(Br)c1OC (centres unmarked) [Example 5]    3.0
Cn1ccc2c3c(ccc21)C(c1ccc(Cl)c(F)c1)C(C#N)=C(N)O3 (centres unmarked) [Example 40H]    6.0
Cn1ccc2c3c(ccc21)C(c1c[nH]c2ccccc12)C(C#N)=C(N)O3 (centres unmarked) [Example 8]    8.9

Could I get Caspase activity (Ratio) for every one of these entries?
1. CCn1ccc2c3c(ccc21)C(c1cc(Br)c(OC)c(OC)c1)C(C#N)=C(N)O3 (centres unmarked) [Example 4]
2. N#CC1=C(N)Oc2c(ccc3c2ccn3CO)C1c1cncc(Br)c1 (centres unmarked) [Example 21]
3. CCC=CCC=CCC=CCC=CCC=CCC=CCCC(=O)OCn1ccc2c3c(ccc21)C(c1cc(Br)c(OC)c(OC)c1)C(C#N)=C(N)O3 (centres unmarked) [Example 38]

A)
1. 9.2
2. 4.4
3. 6.9

Could I get Caspase activity (Ratio) for every one of these entries?
1. Cc1cncc(C2C(C#N)=C(N)Oc3c2ccc2c3ccn2C)c1 (centres unmarked) [Example 10]
2. Cn1ccc2c3c(ccc21)C(c1cccc([N+](=O)[O-])c1)C(C#N)=C(N)O3 (centres unmarked) [Example 25]

A)
[6.6, 7.1]

====

system: ZR-75-1; assay: Caspase cascade activation assay in ZR-75-1 cells (N-(Ac-DEVD)-N'-ethoxycarbonyl-R110 fluorogenic substrate); type: cell-based; settings: ZR-75-1 human breast cancer cells, 24 h incubation; ratio of net RFU of test compound to control
Kindly state Caspase activity (Ratio) for each of the entries shown.
One number for each entry.

Could I get Caspase activity (Ratio) for every one of these entries?
1. COc1cc(C2C(C#N)=C(N)Oc3c2ccc2c3ccn2C)cc(I)c1OC (stereo not drawn)
2. COc1cccc(C2C(C#N)=C(N)Oc3c2ccc2c3ccn2C)c1 (stereo not drawn)
3. Cc1cncc(C2C(C#N)=C(N)Oc3c2ccc2c3ccn2C)n1 (stereo not drawn)

A)
1: 4.3; 2: 6.3; 3: 4.3

Could I get Caspase activity (Ratio) for every one of these entries?
1. COc1cc(C2C(C#N)=C(N)Oc3c2ccc2c3ccn2CC2CO2)cc(Br)c1OC (stereo not drawn)
2. CN1CCc2c1ccc1c2OC(N)=C(C#N)C1c1cc(F)cc(F)c1 (stereo not drawn)
3. Cn1ccc2c3c(ccc21)C(c1cc(F)cc(F)c1)C(C#N)=C(N)O3 (stereo not drawn)
4. COc1cc(C2C(C#N)=C(N)Oc3c2ccc2c3ccn2CO)cc(Br)c1OC (stereo not drawn)
5. COc1cc(C2C(C#N)=C(N)Oc3c2ccc2c3ccn2C(C)C)cc(Br)c1OC (stereo not drawn)
6. COc1cc(C2C(C#N)=C(N)Oc3c2ccc2c3ccn2C)cc(Br)c1OC(C)=O (stereo not drawn)

A)
[11.7, 5.5, 5.6, 3.3, 6.3, 7.2]

====

tested on: T-47D; test: Caspase cascade activation assay in T-47D cells (N-(Ac-DEVD)-N'-ethoxycarbonyl-R110 fluorogenic substrate); assay type: cell-based; settings: T-47D human breast cancer cells, 24 h incubation; ratio of net RFU of test compound to control
Kindly state Caspase activity (Ratio) for each of the entries shown.
Give bare numbers.

For orientation, consider the following solved cases.
CCC=CCC=CCC=CCC=CCC=CCC=CCCC(=O)OCn1ccc2c3c(ccc21)C(c1cncc(C)c1)C(C#N)=C(N)O3 (centres unmarked) [Example 39]    3.7
COc1cncc(C2C(C#N)=C(N)Oc3c2ccc2c3ccn2C)c1 (centres unmarked) [Example 41]    3.8

Could I get Caspase activity (Ratio) for every one of these entries?
1. Cn1ccc2c3c(ccc21)C(c1c[nH]c2ccccc12)C(C#N)=C(N)O3 (centres unmarked) [Example 8]
2. Cn1ccc2c3c(ccc21)C(c1cc(Cl)cc(Cl)c1)C(C#N)=C(N)O3 (centres unmarked) [Example 40D]
3. CCC=CCC=CCC=CCC=CCC=CCC=CCCC(=O)OCn1ccc2c3c(ccc21)C(c1cc(Br)c(OC)c(OC)c1)C(C#N)=C(N)O3 (centres unmarked) [Example 38]

A)
[3.8, 3.3, 5.2]

Could I get Caspase activity (Ratio) for every one of these entries?
1. COc1cc(C2C(C#N)=C(N)Oc3c2ccc2c3c(C)cn2C)cc(Br)c1OC (centres unmarked) [Example 40F]
2. COc1cc(C2C(C#N)=C(N)Oc3c2ccc2c3ccn2CC2CO2)cc(Br)c1OC (centres unmarked) [Example 19]
3. COc1cc(C2C(C#N)=C(N)Oc3c2ccc2c3ccn2C)cc(Br)c1OC (centres unmarked) [Example 16]

A)
1. 2.6
2. 10.2
3. 8.1
